Values were extracted from patent US20090098124A1.

Molecular target: T1, soluble dimeric FcγRIIB (extracellular domain fused to hinge-CH2-CH3 of human IgG2) (human, UniProt P31994 43-217)
T1 construct: extracellular domain; also called FcRIIB; FcRIIB-Fc; not shown: human IgG2 hinge-CH2-CH3
T1 sequence (looked up): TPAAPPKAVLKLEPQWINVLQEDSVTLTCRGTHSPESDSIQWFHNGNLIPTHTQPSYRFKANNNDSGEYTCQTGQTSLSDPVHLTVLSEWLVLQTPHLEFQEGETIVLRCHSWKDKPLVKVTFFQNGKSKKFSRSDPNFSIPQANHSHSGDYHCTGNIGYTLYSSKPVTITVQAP
Experiment: ELISA

- Binder: "IgG1 Fc mutant A378V, N390I, V422I (antibody) heavy: ASTKGPSVFPLAPSSKSTSGGTAALGCLVKDYFPEPVTVSWNSGALTSGVHTFPAVLQSSGLYSLSSVVTVPSSSLGTQTYICNVNHKPSNTKVDKKVEPKSCDKTHTCPPCPAPELLGGPSVFLFPPKPKDTLMISRTPEVTCVVVDVSHEDPEVKFNWYVDGVEVHNAKTKPREEQYNSTYRVVSVLTVLHQDWLNGKEYKCKVSNKALPAPIEKTISKAKGQPREPQVYTLPPSRDELTKNQVSLTCLVKGFYPSDIVVEWESNGQPENIYKTTPPVLDSDGSFFLYSKLTVDKSRWQQGNIFSCSVMHEALHNHYTQKSLSLSPGK"
  Units Text: "fold increase"
  Binding to FcγRIIB (ELISA): 5
